test: Half life in rat at 1 mg/kg, iv or 2 mg/kg, po; format: ADME, organism-based; conditions: in vivo
Assay Metric: half-life

Please review the following examples before continuing.
> print(dat)
                                smiles.code  assay.metric  result
1  CN(C)C(=O)[C@@H](c1ccc(-c2ccn3nccc3n2)cc1)[C@H](N)C(=O)N1CCC(F)(F)C1.O=C(O)C(F)(F)F     half-life   2.7 h
2  CN(C)C(=O)[C@@H](c1ccc(-c2ccc3ncnn3c2)cc1)[C@H](N)C(=O)N1CCCC1.O=C(O)C(F)(F)F     half-life   1.6 h
3  CN(C)C(=O)[C@@H](c1ccc(-c2ccc3ncnn3c2)cc1)[C@H](N)C(=O)N1CC[C@H](F)C1.O=C(O)C(F)(F)F     half-life     2 h
4  CN(C)C(=O)[C@@H](c1ccc(-c2ccn3ncnc3c2)cc1)[C@H](N)C(=O)N1CC[C@H](F)C1.O=C(O)C(F)(F)F     half-life   1.7 h
5  CN(C)C(=O)[C@@H](c1ccc(-c2ccn3nccc3n2)cc1)[C@H](N)C(=O)N1CC[C@H](F)C1.O=C(O)C(F)(F)F     half-life   4.3 h

--- query ---
Q) Identify half-life associated with the compound CN(C)C(=O)[C@@H](c1ccc(-c2ccc(=O)n(C)c2)cc1)[C@H](N)C(=O)N1CC[C@H](F)C1.O=C(O)C(F)(F)F
A) 1.2 h
